molecular target: human mGlu5 (Homo sapiens); construct: expressed in transfected cells; host or cells: HEK 293A; assay: mGlu5 negative allosteric modulator Ca2+ flux assay in HEK 293A cells (Table 1); format: cell-based; conditions: HEK 293A cells stably expressing mGlu5; Ca2+ flux (Fluo-4); decrease of glutamate EC80 response; read-out: hmGlu5 NAM IC50
pIC50: −log10 of the molar value.
measurementLabel: pIC50

Cc1ccncc1-c1cc(C(=O)Nc2ccccn2)cc(F)c1F [Compound 49]: 6.39

A: Cc1ccncc1-c1cc(C#N)cc(C(=O)Nc2ccc(F)cn2)c1 [Compound 25]
B: Cc1cccc(NC(=O)c2cc(-c3cnccc3C)c(F)cc2F)n1 [Compound 47]
C: Cn1nccc1-c1cc(F)c(F)c(C(=O)Nc2ccc(F)cn2)c1 [Compound 32]
D: Cc1cccc(NC(=O)c2cc(-c3cnccc3C)ccc2F)n1 [Compound 13]
Problem: List the 4 entries from lowest pIC50 to highest pIC50 value. Sort and list the labels as requested.
Result: C, A, D, B

* * *

molecular target: human mGlu5 (Homo sapiens); assay: mGlu5 negative allosteric modulator Ca2+ flux assay in HEK 293A cells (Table 1); details: HEK 293A cells stably expressing mGlu5; Ca2+ flux (Fluo-4); decrease of glutamate EC80 response; read-out: hmGlu5 NAM IC50
measurementLabel: IC50 (nM)

Cc1csc(NC(=O)c2cc(Cl)cc(-c3cnccc3C)c2)n1: 631

I: Cc1ccncc1-c1cc(C(=O)Nc2ccc(Cl)cn2)cc(F)c1F
II: Cc1ccncc1-c1cc(C(=O)Nc2ccc(F)cn2)cc(C(F)(F)F)c1
Problem: When I and II are compared, which has the higher number for IC50? Indicate which entry you chose by stating its label.
Result: II

* * *

target: UniProtKB P41594; assay: mGlu5 negative allosteric modulator Ca2+ flux assay in HEK 293A cells (Table 1); settings: HEK 293A cells stably expressing mGlu5; Ca2+ flux (Fluo-4); decrease of glutamate EC80 response; read-out: hmGlu5 NAM IC50
measurementLabel: IC50 (nM)

Cc1ccncc1-c1cc(Cl)cc(C(=O)Nc2ccc(F)cn2)c1: 1860
Cc1ccncc1-c1cc(C(=O)Nc2ccc(F)cn2)cc(F)c1F: 2240

* * *

molecular target: human mGlu5 (Homo sapiens); construct: expressed in transfected cells; host or cells: HEK 293A; experiment: mGlu5 negative allosteric modulator Ca2+ flux assay in HEK 293A cells (Table 1); assay type: cell-based; settings: HEK 293A cells stably expressing mGlu5; Ca2+ flux (Fluo-4); decrease of glutamate EC80 response; read-out: hmGlu5 NAM IC50
measurementLabel: IC50 (nM)

Examples with their reported IC50 follow.
Cc1cc(C(=O)Nc2cccc(C)n2)cc(-c2cnccc2C)c1 [Compound 4]: 43
Cc1nn(C)cc1-c1cc(F)c(F)c(C(=O)Nc2ccc(F)cn2)c1 [Compound 33]: 3460

A: Cc1cccc(NC(=O)c2cc(F)c(F)c(-c3cnc(C)s3)c2)n1 [Compound 45]
B: Cc1cccc(NC(=O)c2cc(F)c(F)c(-c3cc(C(F)(F)F)nn3C)c2)n1 [Compound 44]
Problem: When A and B are compared, which has the higher number for IC50? Indicate which entry you chose by stating its label.
Result: B
(B: 3510 nM, A: 1230 nM)

* * *

target: human mGlu5 (Homo sapiens, UniProt P41594); test: mGlu5 negative allosteric modulator Ca2+ flux assay in HEK 293A cells (Table 1); conditions: HEK 293A cells stably expressing mGlu5; Ca2+ flux (Fluo-4); decrease of glutamate EC80 response; read-out: hmGlu5 NAM IC50
Sequence (P41594 21-1212): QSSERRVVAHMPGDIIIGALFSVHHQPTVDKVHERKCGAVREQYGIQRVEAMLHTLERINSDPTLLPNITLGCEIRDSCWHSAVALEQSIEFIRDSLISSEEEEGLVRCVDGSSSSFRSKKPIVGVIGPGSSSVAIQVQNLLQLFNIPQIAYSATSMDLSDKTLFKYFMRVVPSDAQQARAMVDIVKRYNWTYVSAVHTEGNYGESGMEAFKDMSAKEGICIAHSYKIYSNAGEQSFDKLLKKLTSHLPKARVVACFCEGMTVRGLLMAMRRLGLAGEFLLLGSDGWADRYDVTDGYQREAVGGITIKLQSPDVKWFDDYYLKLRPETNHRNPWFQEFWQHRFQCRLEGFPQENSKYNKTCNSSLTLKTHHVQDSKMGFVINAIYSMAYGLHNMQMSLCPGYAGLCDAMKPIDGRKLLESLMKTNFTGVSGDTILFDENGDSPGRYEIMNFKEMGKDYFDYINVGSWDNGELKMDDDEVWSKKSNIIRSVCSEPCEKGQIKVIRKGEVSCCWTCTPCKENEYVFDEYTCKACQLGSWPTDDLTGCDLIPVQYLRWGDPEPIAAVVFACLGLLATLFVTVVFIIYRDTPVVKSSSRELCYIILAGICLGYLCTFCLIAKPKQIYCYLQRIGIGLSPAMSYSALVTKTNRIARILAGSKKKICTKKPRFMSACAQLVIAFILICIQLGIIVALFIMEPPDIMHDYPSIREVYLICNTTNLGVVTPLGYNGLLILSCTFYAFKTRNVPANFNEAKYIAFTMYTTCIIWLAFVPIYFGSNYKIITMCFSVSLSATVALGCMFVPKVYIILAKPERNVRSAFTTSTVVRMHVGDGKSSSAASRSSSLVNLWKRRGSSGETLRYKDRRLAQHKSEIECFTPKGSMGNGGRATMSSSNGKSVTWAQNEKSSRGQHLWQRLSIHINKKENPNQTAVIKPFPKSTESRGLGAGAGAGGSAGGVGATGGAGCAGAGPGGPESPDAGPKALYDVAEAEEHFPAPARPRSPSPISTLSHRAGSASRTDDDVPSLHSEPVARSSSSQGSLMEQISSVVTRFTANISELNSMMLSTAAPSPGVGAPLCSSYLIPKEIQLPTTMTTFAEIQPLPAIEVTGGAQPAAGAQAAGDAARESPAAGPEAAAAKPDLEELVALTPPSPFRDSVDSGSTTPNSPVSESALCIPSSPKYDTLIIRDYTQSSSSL
pIC50: −log10 of the molar value.
measurementLabel: pIC50

Examples with their reported pIC50 follow.
Cn1cncc1-c1cc(F)cc(C(=O)Nc2ccc(F)cn2)c1: < 5.00
Cc1nn(C)c(C)c1-c1cc(F)cc(C(=O)Nc2ccc(F)cn2)c1: < 5.00

Here is the next item to consider.
Problem: Would you mind telling me what pIC50 value was observed for `Cc1nn(C)cc1-c1ccc(F)c(C(=O)Nc2ccc(F)cn2)c1` ?
Result: < 5.00
